Assignment: determine reported GLP1R cAMP Stimulation DR: pEC50 for the given molecules.
Target: GLP-1 Receptor (Homo sapiens, UniProt P43220)
Sequence (P43220 24-463): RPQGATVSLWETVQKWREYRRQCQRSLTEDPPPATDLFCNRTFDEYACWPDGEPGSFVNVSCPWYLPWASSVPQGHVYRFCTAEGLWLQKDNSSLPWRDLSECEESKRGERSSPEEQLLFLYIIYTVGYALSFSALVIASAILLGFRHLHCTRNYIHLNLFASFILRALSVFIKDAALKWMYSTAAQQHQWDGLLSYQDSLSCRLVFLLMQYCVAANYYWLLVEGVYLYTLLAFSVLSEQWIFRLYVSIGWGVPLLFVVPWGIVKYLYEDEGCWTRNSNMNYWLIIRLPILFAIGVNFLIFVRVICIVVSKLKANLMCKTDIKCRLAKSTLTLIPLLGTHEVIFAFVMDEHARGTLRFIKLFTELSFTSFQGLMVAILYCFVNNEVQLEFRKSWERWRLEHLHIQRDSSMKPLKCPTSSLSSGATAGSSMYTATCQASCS
Experiment: GLP-1R agonist cAMP stimulation assay (HEK293/GLP1R/CRE-Luc cells, HTRF cAMP)
Assay type: cell-based
Conditions: HEK293/CRE-Luc cells stably expressing GLP-1 Receptor; 30 min, 37° C.
Answers are plain numbers.

Recorded GLP1R cAMP Stimulation DR: pEC50, per entry:
Ask: GET /values?readout=GLP1R cAMP Stimulation DR: pEC50&item= O=C(O)c1ccc2nc(CN3CCC(Oc4cc(Cl)cc(Cc5ccc(Cl)cc5)n4)CC3)n(C[C@@H]3CCO3)c2n1 [Compound 155a]
Result: 8.4

Ask: GET /values?readout=GLP1R cAMP Stimulation DR: pEC50&item= O=C(O)c1ccc2nc(C[C@H]3CC[C@@H](Oc4ccnc(Cc5ccc(Cl)cc5F)n4)CC3)n(C[C@@H]3CCO3)c2n1 [Compound 175a]
Result: 6.6

Your task in this section: give GLP1R cAMP Stimulation DR: pEC50 for each listed record.
1. COCCn1c(C[C@H]2CC[C@H](Oc3ccnc(Cc4ccc(Cl)cc4)n3)CC2)nc2ccc(C(=O)O)nc21 [Compound 179a]
2. N#Cc1ccc(Cc2cccc(OC3CCN(Cc4nc5ccc(C(=O)O)cc5n4C[C@@H]4CCO4)CC3)n2)c(F)c1 [Compound 135a]
3. O=C(O)c1ccc2nc(CN3CCC(Oc4cccc(Cn5ccc(Cl)cc5=O)n4)CC3)n(C[C@@H]3CCO3)c2n1 [Compound 149a]

Result:
[8.6, 8.7, 8.3]

Your task in this section: give GLP1R cAMP Stimulation DR: pEC50 for each listed record.
1. O=C(O)c1ccc2nc(CN3CCC(Cc4cccc(Oc5ccc(Cl)cc5F)n4)CC3)n(C[C@@H]3CCO3)c2n1 [Compound 121a]
2. NC(=O)c1ccc2nc(CN3CCC(Oc4ccnc(Cc5ccc(Cl)cc5)n4)CC3)n(C[C@@H]3CCO3)c2n1 [Compound 200a]
3. O=C(O)c1ccc2nc(CN3CC4CC(Oc5ccnc(Cc6ccc(Cl)cc6)n5)CC4C3)n(C[C@@H]3CCO3)c2n1 (stereo partly drawn) [Compound 201a]

Result:
8.2
7.1
6.4

Ask: GET /values?readout=GLP1R cAMP Stimulation DR: pEC50&item= O=C(O)c1ccc2nc(C[C@H]3CC[C@@H](Oc4cccc(Cc5ccc(Cl)cc5F)n4)CC3)n(C[C@@H]3CCO3)c2n1 [Compound 174a]
Result: 7.5

====

Assignment: determine reported GLP1R cAMP Stimulation DR: pEC50 for the given compounds.
Biological target: GLP-1 Receptor (Homo sapiens, UniProt P43220)
Assay: GLP-1R agonist cAMP stimulation assay (HEK293/GLP1R/CRE-Luc cells, HTRF cAMP)
Type: cell-based
Conditions: HEK293/CRE-Luc cells stably expressing GLP-1 Receptor; 30 min, 37° C.
One number for each entry.

Ask: What GLP1R cAMP Stimulation DR: pEC50 appears in the records for this compound with GLP-1 Receptor (Homo sapiens, UniProt P43220)? O=C(O)c1ccc2nc(C[C@H]3CC[C@H](Oc4cccc(Cc5ccc(Cl)cc5)n4)CC3)n(C[C@@H]3CCO3)c2n1 [Compound 181a]
Result: 10.1

Ask: What GLP1R cAMP Stimulation DR: pEC50 appears in the records for this compound with GLP-1 Receptor (Homo sapiens, UniProt P43220)? O=C(O)c1ccc2nc(CN3CCC(Oc4ccnc(Cc5ccc(Cl)cc5)n4)CC3)n(Cc3cn[nH]c3)c2n1
Result: 9.7

--- query ---
Ask: What GLP1R cAMP Stimulation DR: pEC50 appears in the records for this compound with GLP-1 Receptor (Homo sapiens, UniProt P43220)? O=C(O)c1ccc2nc(CN3CCC(Oc4ccn(Cc5ccc(Cl)cc5F)n4)CC3)n(C[C@@H]3CCO3)c2c1 [Compound 116a]
Result: 8.6

From: patent US11926626B2
